# SYSTEM_NAME: GPR109B (Homo sapiens, UniProt P49019)
# Sequence (P49019 whole entry): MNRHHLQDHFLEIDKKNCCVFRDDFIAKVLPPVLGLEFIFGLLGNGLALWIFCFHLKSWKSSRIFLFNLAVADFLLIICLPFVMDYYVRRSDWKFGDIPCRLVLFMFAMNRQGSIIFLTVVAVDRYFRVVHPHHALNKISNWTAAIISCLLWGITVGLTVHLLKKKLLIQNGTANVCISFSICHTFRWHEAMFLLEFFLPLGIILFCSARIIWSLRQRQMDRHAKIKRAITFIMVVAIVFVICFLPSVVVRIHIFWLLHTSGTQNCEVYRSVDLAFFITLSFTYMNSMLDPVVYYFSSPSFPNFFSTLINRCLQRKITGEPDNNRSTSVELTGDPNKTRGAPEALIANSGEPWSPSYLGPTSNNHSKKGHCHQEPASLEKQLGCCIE
# ASSAY_INFO: cell-based
MEASURED_QUANTITY: EC50
Quote the value and follow it with the unit of measurement.

Fill in the blank: the reported EC50 of O=C(O)C=Cc1ccc(O)cc1 [4-hydroxycinnamic acid] is ____.
208 µM

---

# SYSTEM_NAME: GPR151 (Homo sapiens)
# Sequence (Q8TDV0 whole entry): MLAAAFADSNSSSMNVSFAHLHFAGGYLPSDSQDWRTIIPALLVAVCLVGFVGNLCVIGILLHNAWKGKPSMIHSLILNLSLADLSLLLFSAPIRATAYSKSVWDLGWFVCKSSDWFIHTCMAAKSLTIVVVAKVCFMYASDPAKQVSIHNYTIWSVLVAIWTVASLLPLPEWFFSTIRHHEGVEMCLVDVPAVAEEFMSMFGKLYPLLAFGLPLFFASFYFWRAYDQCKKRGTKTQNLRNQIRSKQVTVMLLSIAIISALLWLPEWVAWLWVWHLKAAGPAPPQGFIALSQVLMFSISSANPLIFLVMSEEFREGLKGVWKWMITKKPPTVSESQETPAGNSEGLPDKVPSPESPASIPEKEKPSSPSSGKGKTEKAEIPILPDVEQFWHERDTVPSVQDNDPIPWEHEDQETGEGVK
# ASSAY_INFO: β-arrestin recruitment GPCR agonist assay (PathHunter), GPR151
# Format: cell-based
# ASSAY_SETUP: Table 1, GPCR GPR151 (Q8TDV0)
MEASURED_QUANTITY: EC50 (µM)
Quick note: give the figure in µM, leave out the unit.

Check out these entries, answers already filled in.
MOLECULE | EC50 / µM
CCC(C)CCCCCCCCCCC(=O)O (stereo not drawn) [12-methylmyristic acid, 12-methyltetradecanoic acid] | 49
CCC(C)CCCCCCCCCCCCC(=O)O (stereo not drawn) [14-methylpalmitic acid] | 40

Here is another molecule to look at.
Fill in the blank: the reported EC50 of CC(C)CCCCCCCCCCCC(=O)O [13-methylmyristic acid, 13-methyltetradecanoic acid] is ____.
44

---

# SYSTEM_NAME: UniProt Q9HB89
# Sequence (Q9HB89 whole entry): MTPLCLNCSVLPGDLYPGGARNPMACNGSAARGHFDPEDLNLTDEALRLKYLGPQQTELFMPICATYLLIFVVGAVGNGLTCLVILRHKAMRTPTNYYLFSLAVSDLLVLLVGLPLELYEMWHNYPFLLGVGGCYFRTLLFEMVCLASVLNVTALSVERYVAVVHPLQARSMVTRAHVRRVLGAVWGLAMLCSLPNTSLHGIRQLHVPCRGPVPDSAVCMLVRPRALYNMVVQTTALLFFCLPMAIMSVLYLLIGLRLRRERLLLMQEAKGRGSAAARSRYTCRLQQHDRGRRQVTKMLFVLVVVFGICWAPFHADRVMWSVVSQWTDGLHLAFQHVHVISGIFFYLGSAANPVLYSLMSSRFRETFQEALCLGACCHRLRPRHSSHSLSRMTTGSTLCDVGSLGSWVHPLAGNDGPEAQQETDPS
# ASSAY_INFO: β-arrestin recruitment GPCR agonist assay (PathHunter), NMU1R
# Format: cell-based
# ASSAY_SETUP: Table 1, GPCR NMU1R (Q9HB89); read-out: EC50 (μM), NMU1R
MEASURED_QUANTITY: EC50 (µM)
Quick note: give the figure in µM, leave out the unit.

Fill in the blank: the reported EC50 of CCC(C)CCCCCCCCCCC(=O)O (stereo not shown) [12-methylmyristic acid, 12-methyltetradecanoic acid] is ____.
29

---

# SYSTEM_NAME: UniProt:Q9UKP6
# Sequence (Q9UKP6 1-389): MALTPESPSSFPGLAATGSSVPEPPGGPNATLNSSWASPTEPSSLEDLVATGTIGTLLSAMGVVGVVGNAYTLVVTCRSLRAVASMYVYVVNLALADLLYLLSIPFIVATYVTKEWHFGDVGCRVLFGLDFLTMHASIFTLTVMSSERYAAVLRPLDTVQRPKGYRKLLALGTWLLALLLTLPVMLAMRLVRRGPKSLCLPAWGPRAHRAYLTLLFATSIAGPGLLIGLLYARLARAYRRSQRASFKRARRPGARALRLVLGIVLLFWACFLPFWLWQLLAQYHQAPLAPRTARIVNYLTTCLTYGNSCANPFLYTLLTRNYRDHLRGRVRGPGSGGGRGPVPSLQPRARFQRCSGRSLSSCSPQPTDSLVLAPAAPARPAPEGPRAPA
# ASSAY_INFO: β-arrestin recruitment GPCR agonist assay (PathHunter), UTR2
# Format: cell-based
# ASSAY_SETUP: Table 1, GPCR UTR2 (Q9UKP6); read-out: EC50 (μM), UTR2
MEASURED_QUANTITY: EC50 (µM)
Quick note: give the figure in µM, leave out the unit.

MOLECULE | MEASUREMENT
CCCCCCC1CC1CCCCCCCC(=O)O (centres unmarked) | 52

Here is another molecule to look at.
Fill in the blank: the reported EC50 of CCC(C)CCCCCCCCCCC(=O)O (centres unmarked) is ____.
49
